Hey, just so you know, these numbers are from the RNAGym collection of RNA variant scans (doi:10.1021/acssynbio.7b00057).

B1: Pistol ribozyme (parent)
chain: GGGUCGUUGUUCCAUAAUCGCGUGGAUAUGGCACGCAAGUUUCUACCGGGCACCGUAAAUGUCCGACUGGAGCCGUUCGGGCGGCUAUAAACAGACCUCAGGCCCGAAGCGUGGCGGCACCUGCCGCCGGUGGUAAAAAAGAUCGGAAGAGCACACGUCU

- Variants of: B1
- ASSAY_PROCEDURE: aptazyme ON/OFF ratio, guanine; higher = stronger switching; co-transcriptional cleavage with and without guanine
Listing of recorded aptazyme ON/OFF ratio by entry.

MUTATION_ID | aptazyme ON/OFF ratio
U7A U8C G9C U10A U11G C12U C13A | 1.13
U7A G9U U10A C12A C13U | 1.19
U10A C12G C13U | 1.47
U8A G9A U11A | 1.39
U7C U8A U10G C13U | 1.28
U7A U8G G9C U11G C12A C13U | 1.28
U8C G9A U10C C12U | 1.95
U7C U8G G9A U11G | 1.18
U7C U8C G9C U10A U11A C12G C13A | 1.11
U7G U8G G9U U10G C12A C13U | 1.16
U8G G9C U10G U11A C12A C13U | 1.11
U7C U8C G9A U10G U11A C12A C13U | 1.16
U8G G9A U10C U11C C12U C13U | 1.03
U7G G9A U10C C12U | 1.59
U8A G9A U11G C12A C13A | 1.14
U7C U8C G9U U10G U11G C12U C13G | 1.09
U8C U10C C12G | 1.29
U7A U8C G9C U10C U11G C13G | 1.16
G9U U10C C12A C13U | 1.38
U7C U8G G9U U10G C12U C13U | 1.32
U8A G9U C13A | 1.24
U7G U8A G9A C12U | 1.12
